- STUDY_SYSTEM: Dickkopf-related protein 1 (Homo sapiens) (UniProt O94907)
- Sequence (O94907 whole entry, looked up): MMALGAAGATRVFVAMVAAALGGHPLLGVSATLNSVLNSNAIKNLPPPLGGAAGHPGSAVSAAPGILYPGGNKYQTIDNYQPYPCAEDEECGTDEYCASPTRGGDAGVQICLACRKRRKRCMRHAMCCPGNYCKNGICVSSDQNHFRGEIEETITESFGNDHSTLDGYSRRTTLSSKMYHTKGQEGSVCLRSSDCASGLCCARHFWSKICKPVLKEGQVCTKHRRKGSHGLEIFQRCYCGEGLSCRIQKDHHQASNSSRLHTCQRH
- TEST_METHOD_NOTES: DKK1 binders on small-molecule microarrays, primary screen, biochemical, small-molecule microarray, 635 nm fluorescence scan (AID 1106);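 also: score merges emission near 667 nm with signal to noise over three replicate slides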
- DETAILS: DKK1 binding, higher = more signal
MEASUREMENT_KIND: composite z-score
The answer should be written as a number, with no unit following it.

Asked: Returns the measured composite z-score for the input compound. Input: "C=C(/C(=C/C[C@@H](OC(C)=O)c1cccc(OCCO)c1)c1cc(C(=O)OC)ccc1OC)C(C)C"
Given back: -0.35

Asked: Requested read-out: composite z-score. Entry: "COC(=O)[C@@]1(Cc2ccccc2)[C@@H]2C(=CC(=O)[C@H]2CC(=O)C(=O)N(C)C)CN1C(=O)c1ccccc1"
Given back: -0.465

Asked: Can you look up the measured composite z-score of CC(c1ccccc1)C(O)C1C=CC2C(=O)N(c3ccccc3)C(=O)C2N1Nc1ccc([N+](=O)[O-])cc1 (stereo not given) for me?
Given back: -0.405

Asked: Param item = CN1C(=O)C2C=CC(C(O)COCc3ccccc3)N(N(c3ccccc3)c3ccccc3)C2C1=O (stereo not given) ; retrieve measured composite z-score.
Given back: -0.674

Asked: Name the recorded composite z-score for "CO[C@]12C=C(Br)[C@@H](C[C@@H]1c1cccc(C)c1)[C@@]1(CO1)C2=O" .
Given back: 0.0254

Asked: For the compound "C[N+](C)(C)CCCCCCNC(=O)[C@H]1C[C@H]2C(=O)N[C@@H](Cc3ccccc3)C(=O)N2[C@H]1c1ccc(O)cc1" , what composite z-score is on record?
Given back: 0.834

Asked: Using the record for C[C@H]1NC(=O)[C@@]23C(=O)N[C@@H](Cc4ccccc4)C2[C@H](C)[C@@]2(C)O[C@H]2C3/C=C/C/C=C\CNC(=O)[C@H](Cc2ccccc2)NC1=O (stereo not given in full) , report its composite z-score.
Given back: 0.689

Asked: Item under review: COc1ccc(C(O)C2C=CC3C(=O)N(c4ccccc4)C(=O)C3N2Nc2ccc([N+](=O)[O-])cc2)cc1 (stereo not given) . Reported composite z-score?
Given back: -0.655

Asked: For "O=C(CS)NCCCCCNC(=O)[C@@H]1C[C@@H]2C(=O)N3CCC[C@H]3C(=O)N2[C@@H]1c1cccc(OCCO)c1" , what is its reported composite z-score?
Given back: 0.292

Asked: Which composite z-score is reported for this compound? "CN(C)CCCNC(=O)[C@@]1(c2ccc([N+](=O)[O-])cc2)CC(=O)N(CC23CC4CC(CC(C4)C2)C3)[C@@H]1c1ccc(CO)cc1I"
Given back: 1.08

Asked: // query composite z-score value for entry "C=C(/C(=C/C[C@H](OC(C)=O)c1ccccc1OCCO)c1cc(C(=O)OC)ccc1OC)C(C)C"
Given back: -0.0716

Asked: Please look up its composite z-score: "COC(=O)[C@@]1(Cc2ccc(OC)cc2)[C@H]2c3cc(C(=O)N4CCCC4)n(Cc4c(-c5ccccc5)noc4C)c3C[C@H]2CN1C(=O)c1ccccc1"
Given back: -0.414

Asked: Record request: composite z-score value, item C=CCC(OC(C)=O)[C@@H]1[C@@H](N(Cc2cccc3ccccc23)C(=O)Cc2ccc(OC)cc2)c2cc(OCCCO)ccc2N1C(=O)c1ccc2ccccc2n1 (stereo not given in full)
Given back: -0.0462

Asked: // lookup composite z-score for "[N-]=[N+]=Nc1ccccc1C[C@]1(C(N)=O)N=C(c2ccc(OCCCO)cc2)O[C@H]1c1ccccc1N=[N+]=[N-]"
Given back: -0.442

Asked: What does the data say about its composite z-score? Entry: "COc1ccc(-c2cc3c(c(CCc4ccccc4)n2)[Si](C(C)C)(C(C)C)OC3)cn1"
Given back: 0.0275

All figures here come from PubChem BioAssay.
